Target sequence: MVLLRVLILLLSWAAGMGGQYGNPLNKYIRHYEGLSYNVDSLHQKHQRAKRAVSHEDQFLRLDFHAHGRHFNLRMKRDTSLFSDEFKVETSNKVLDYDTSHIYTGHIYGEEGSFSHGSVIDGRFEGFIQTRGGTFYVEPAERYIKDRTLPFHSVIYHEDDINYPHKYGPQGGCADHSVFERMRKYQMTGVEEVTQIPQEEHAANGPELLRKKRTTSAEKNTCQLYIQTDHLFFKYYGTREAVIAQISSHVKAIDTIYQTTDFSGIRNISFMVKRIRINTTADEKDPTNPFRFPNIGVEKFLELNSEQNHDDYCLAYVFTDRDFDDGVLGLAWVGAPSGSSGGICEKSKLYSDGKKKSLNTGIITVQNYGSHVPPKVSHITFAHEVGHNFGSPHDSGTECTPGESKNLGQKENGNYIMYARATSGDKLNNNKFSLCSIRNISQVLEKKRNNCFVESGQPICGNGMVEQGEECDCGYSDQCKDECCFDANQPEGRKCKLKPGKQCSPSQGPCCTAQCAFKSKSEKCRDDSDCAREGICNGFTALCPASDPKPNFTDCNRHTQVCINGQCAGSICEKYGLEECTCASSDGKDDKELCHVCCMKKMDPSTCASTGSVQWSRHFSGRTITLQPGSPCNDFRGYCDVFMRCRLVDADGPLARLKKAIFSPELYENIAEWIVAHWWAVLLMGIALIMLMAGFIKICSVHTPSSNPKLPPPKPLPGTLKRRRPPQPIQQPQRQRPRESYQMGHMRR
# key: entry, value: IC50

* O=C(NO)[C@H]1CN(C(=O)N2CCOCC2)CCN1S(=O)(=O)c1cc(F)c(Oc2ccc(Cl)cc2)c(F)c1 [Entry 30] | < 50 nM

Please examine the following record next.
Give its IC50 value. Item: O=C(NO)[C@H]1CN(C(=O)c2cccnc2)CCN1S(=O)(=O)c1cc(F)c(Oc2ccc(Cl)cc2)c(F)c1 [Entry 59]
< 50 nM

----------
Measured pIC50, listed per entry for reference.
assayed_system: mADAM-10 or hADAM-10 (UniProt O14672)
protocol: ADAM-10 enzyme assay (fluorogenic peptide cleavage);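 note: fluorescence from cleavage of a quenched 10-residue DABCYL/EDANS peptide by 5 nM enzyme in HEPES pH 8.0 buffer, 16 hr at room temperature, compounds serially diluted 100 µM to 0.5 nM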
Type: biochemical
pIC50: −log10 of the molar value.

Some molecules with known pIC50 results, for comparison:
- CN(C)c1cccc2c(S(=O)(=O)N3CCN(S(=O)(=O)c4cc(F)c(Oc5ccc(Cl)cc5)c(F)c4)[C@@H](C(=O)NO)C3)cccc12 [Entry 60]: 6.00 to 7.30
- O=C(NO)[C@H]1CN(C(=O)CN2CCCCC2)CCN1S(=O)(=O)c1cc(F)c(Oc2ccc(Cl)cc2)c(F)c1 [Entry 26]: > 7.30
- O=C(NO)[C@H]1CN(C(=O)CN2CCOCC2)CCN1S(=O)(=O)c1cc(F)c(Oc2ccc(Cl)cc2)c(F)c1 [Entry 25]: > 7.30

Here is the next item to consider.
Request the reported pIC50 associated with CN(C)CCS(=O)(=O)N1CCN(S(=O)(=O)c2cc(F)c(Oc3ccc(Cl)cc3)c(F)c2)[C@@H](C(=O)NO)C1 [Entry 54]
> 7.30

Each recorded value in this set is attributed to patent US20110082114A1.
